# testSystem: aldose reductase (Homo sapiens, UniProt P15121)
# protocolText: Aldose reductase inhibition assay
# Format: biochemical
# statedConditions: read-out: IC50 for the Inhibitory Activity Assays, AR (converted)
I'd appreciate it if you could supply IC50 values for the items below.
Numbers only, in µM.

For orientation, consider the following solved cases.
molecule	assayValue
Cc1cc(/C=C2\SC(=O)N(CC(=O)O)C2=O)c(C)n1-c1ccccc1 [TZDD3]	161
Cc1cc(/C=C2/S/C(=N\c3ccccc3)NC2=O)c(C)n1-c1ccccc1 [TZDD4]	98.5
Cc1cc(/C=C2\SC(=O)N(CC(=O)N3CCCC3)C2=O)c(C)n1-c1ccccc1 [TZDD2]	201

Now for another entry.
Short answer please: IC50, aldose reductase (Homo sapiens, UniProt P15121), entry COc1cc(OC)c(/C=C2/SC(=O)N(CC(=O)N3CCN(c4ccccc4)CC3)C2=O)c(OC)c1 [TZDD1]
55.3
